Measured values drawn from PubChem BioAssay AID2060606 for this set.

system: 922993-354-T-J3-PDC complex spheroids, viability, % test/control; test: Anticancer human tumor 922993-354-T-J3-PDC patient-derived endometrial carcinoma cell line growth inhibition [CLK]; conditions: second compound 0.316 µM; first compound 3.16 µM; hits give low values;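 further: spheroids exposed to the agents for 7 days before readout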
# viability, T/C per entry
A number alone suffices; assume %.

Below are worked cases with known answers.
compound	assayed-target	viability, T/C [%]
O=C(c1cc(Cc2n[nH]c(=O)c3ccccc23)ccc1F)N1CCN(C(=O)C2CC2)CC1 + CN1CCN(c2cc(C(=O)Nc3cc4cc(-c5cnn(C)c5)ccc4cn3)ccn2)CC1	922993-354-T-J3-PDC complex spheroids, viability, % test/control	39.1
CC(=O)O[C@H]1C(=O)[C@@]2(C)[C@H]([C@H](OC(=O)c3ccccc3)[C@]3(O)C[C@H](OC(=O)[C@H](O)[C@@H](NC(=O)c4ccccc4)c4ccccc4)C(C)=C1C3(C)C)[C@]1(OC(C)=O)CO[C@@H]1C[C@@H]2O + CN1CCN(c2cc(C(=O)Nc3cc4cc(-c5cnn(C)c5)ccc4cn3)ccn2)CC1	922993-354-T-J3-PDC complex spheroids, viability, % test/control	16.1
CC(Nc1ccc2c(c1)OCCn1cc(N3C(=O)OCC3C(F)F)nc1-2)C(N)=O (configuration not stated) + CNC(=O)c1ccc(Nc2nc(OC3CCCC3)c3c(-c4ccc5nc(C)oc5c4)c[nH]c3n2)c(OC)c1	922993-354-T-J3-PDC complex spheroids, viability, % test/control	40

**Q:** Endpoint output: viability, T/C of Nc1ccn(C2OC(CO)C(O)C2(F)F)c(=O)n1 (configuration not stated) + CNC(=O)c1ccc(Nc2nc(OC3CCCC3)c3c(-c4ccc5nc(C)oc5c4)c[nH]c3n2)c(OC)c1 . Value?
**A:** 16.9

**Q:** // query viability, T/C value for entry COC1C=CCC(C)C(C)S(=O)(=O)NC(=O)c2ccc3c(c2)N(CC2CCC21)CC1(CCCc2cc(Cl)ccc21)CO3 (configuration not stated) + CN1CCN(c2cc(C(=O)Nc3cc4cc(-c5cnn(C)c5)ccc4cn3)ccn2)CC1
**A:** 13.6
